# System Tested: rat brain N-type calcium channel subunits (α1B+α2δ+β1b cDNA subunits) (Rattus norvegicus)
# Construct: expressed in transfected cells; host or cells: HEK 293
# Sequence (Q02294 whole entry): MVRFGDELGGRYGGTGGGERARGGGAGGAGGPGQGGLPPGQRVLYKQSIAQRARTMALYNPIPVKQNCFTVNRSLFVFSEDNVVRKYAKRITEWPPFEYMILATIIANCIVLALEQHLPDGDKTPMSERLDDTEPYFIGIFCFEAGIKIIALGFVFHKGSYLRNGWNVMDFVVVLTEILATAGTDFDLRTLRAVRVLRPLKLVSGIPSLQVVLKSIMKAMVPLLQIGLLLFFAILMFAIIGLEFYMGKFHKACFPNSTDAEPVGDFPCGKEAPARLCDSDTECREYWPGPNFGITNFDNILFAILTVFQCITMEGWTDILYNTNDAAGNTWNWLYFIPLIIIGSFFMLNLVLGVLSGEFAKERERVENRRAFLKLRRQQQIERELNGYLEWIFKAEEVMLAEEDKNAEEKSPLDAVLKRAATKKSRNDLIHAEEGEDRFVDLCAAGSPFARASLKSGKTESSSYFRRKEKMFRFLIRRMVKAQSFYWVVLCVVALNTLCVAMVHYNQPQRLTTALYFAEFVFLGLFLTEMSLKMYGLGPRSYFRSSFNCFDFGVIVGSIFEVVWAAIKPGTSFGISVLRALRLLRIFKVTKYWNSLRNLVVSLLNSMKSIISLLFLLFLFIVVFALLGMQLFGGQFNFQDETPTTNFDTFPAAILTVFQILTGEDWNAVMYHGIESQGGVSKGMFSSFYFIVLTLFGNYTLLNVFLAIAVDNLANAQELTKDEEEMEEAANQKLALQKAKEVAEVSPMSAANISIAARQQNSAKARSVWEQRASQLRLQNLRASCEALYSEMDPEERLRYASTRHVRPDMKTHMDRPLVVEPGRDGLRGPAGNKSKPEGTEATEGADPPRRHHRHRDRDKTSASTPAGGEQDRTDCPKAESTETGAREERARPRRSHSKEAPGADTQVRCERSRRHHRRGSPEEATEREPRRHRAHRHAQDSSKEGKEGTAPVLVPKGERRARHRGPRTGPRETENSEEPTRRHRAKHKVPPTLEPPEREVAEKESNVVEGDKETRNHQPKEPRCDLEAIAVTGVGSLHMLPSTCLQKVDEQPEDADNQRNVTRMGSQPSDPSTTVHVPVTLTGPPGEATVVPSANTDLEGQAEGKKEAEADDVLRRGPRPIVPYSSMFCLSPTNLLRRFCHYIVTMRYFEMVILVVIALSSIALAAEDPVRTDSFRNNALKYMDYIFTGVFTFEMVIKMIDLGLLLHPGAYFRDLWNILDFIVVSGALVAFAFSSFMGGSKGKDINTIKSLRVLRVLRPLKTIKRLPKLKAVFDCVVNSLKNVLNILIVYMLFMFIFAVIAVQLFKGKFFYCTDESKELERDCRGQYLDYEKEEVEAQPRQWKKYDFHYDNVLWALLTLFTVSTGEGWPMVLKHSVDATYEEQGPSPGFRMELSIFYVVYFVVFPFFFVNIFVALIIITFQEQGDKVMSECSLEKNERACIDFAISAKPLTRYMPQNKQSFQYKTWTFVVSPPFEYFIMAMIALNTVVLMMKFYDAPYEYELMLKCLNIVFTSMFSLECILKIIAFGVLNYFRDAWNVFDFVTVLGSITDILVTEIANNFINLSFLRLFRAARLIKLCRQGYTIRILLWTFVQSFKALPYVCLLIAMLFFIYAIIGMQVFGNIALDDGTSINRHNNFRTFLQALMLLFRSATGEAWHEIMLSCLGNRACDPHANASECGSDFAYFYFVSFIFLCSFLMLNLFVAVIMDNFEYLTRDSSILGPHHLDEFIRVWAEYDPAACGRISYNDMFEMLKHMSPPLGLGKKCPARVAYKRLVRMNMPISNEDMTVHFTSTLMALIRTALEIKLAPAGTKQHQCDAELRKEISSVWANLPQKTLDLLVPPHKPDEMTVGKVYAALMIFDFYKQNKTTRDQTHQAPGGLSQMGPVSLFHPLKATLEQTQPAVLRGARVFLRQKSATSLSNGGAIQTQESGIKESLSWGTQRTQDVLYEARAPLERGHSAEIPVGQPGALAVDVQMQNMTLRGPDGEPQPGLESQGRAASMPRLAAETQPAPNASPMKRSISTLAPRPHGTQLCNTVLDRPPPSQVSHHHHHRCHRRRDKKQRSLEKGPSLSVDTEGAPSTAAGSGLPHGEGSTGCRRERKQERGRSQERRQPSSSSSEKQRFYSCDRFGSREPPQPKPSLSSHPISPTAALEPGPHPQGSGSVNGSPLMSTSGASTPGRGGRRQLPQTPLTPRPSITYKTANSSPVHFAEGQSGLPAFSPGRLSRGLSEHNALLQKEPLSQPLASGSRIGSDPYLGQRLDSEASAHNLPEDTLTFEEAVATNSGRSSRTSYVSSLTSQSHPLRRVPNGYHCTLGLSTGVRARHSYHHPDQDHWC
# Protocol Notes: N-type calcium channel block, whole cell patch clamp in HEK 293 cells
# Assay type: cell-based
# Measurement Parameters: low frequency stimulation 0.067 Hz (tonic block); holding potential −80 mV to +10 mV; read-out: IC50 @ 0.067 Hz
Quantity Name: pIC50
Just so you know, pIC50 here is -log10 of the concentration in molar units; reply with that number alone.

Form field pIC50, entry CC(C)(C)c1cc(C(=O)NC/C=C\CNC(=O)CCCCC(c2ccc(F)cc2)c2ccc(F)cc2)cc(C(C)(C)C)c1O [Compound P3] : 6.33

Form field pIC50, entry O=C(CCCCC(c1ccc(F)cc1)c1ccc(F)cc1)NCCCCNC(=O)COc1ccc(Cl)cc1 [Compound P36] : 7.41

Form field pIC50, entry COc1c(C(C)(C)C)cc(C(=O)NC/C=C/CNC(=O)CCCCC(c2ccc(F)cc2)c2ccc(F)cc2)cc1C(C)(C)C [Compound P12] : 6.66

Form field pIC50, entry Cc1ccc(C(=O)NC/C=C/CNC(=O)CCCCC(c2ccc(F)cc2)c2ccc(F)cc2)cc1 [Compound P19] : 6.74

Form field pIC50, entry CC(C)(C)c1ccc(C(=O)NCCCCNC(=O)CCCCC(c2ccc(F)cc2)c2ccc(F)cc2)cc1 [Compound P34] : 6.54

Form field pIC50, entry O=C(CC(c1ccccc1)c1ccccc1)NCC#CCN(Cc1ccccn1)Cc1ccccn1 [Compound P32] : 5.66

Form field pIC50, entry O=C(CCCCC(c1ccc(F)cc1)c1ccc(F)cc1)NC/C=C/CNC(=O)COc1ccc(Cl)cc1 [Compound P16] : 7.28
